tested on: HeLa MZ; assay: LBPA endosome anti-LBPA integrated intensity (sum per cell), Z-score; higher = more LBPA staining; conditions: compound concentration in added solution (µM; 5 µl added to 20 µl cells): 10; 18 h
Structures can show the parent of a compound that is named as a salt.
MEASURE: LBPA endosome anti-LBPA integrated intensity (z-score)
Output spec: single numeric token, no unit.

CN(C)CCN(Cc1cccs1)c1ccccn1 [Methapyrilene hydrochloride] :: 0.465
OC(Cn1cncn1)(Cn1cncn1)c1ccc(F)cc1F [Fluconazole] :: 0.69

Alright, here's another compound for you.
Quote LBPA endosome anti-LBPA integrated intensity (z-score) with test system HeLa MZ for CC(C)(C)NC[C@H](O)c1ccc(O)c(CO)c1 [Levalbuterol hydrochloride]
-1.22

---

system: HeLa MZ; assay: whole-cell filipin (free cholesterol) integrated intensity, Z-score; higher = more cholesterol staining; conditions: compound concentration in added solution (µM; 5 µl added to 20 µl cells): 10; 18 h
Structures can show the parent of a compound that is named as a salt.
MEASURE: whole-cell filipin (z-score)
Output spec: single numeric token, no unit.

// solved cases for whole-cell filipin (z-score) follow
CC(=O)O[C@]1(C(C)=O)CC[C@H]2[C@@H]3C=C(Cl)C4=CC(=O)[C@@H]5C[C@@H]5[C@]4(C)[C@H]3CC[C@@]21C [Cyproterone acetate] :: 0.591
O=C(O)c1ccccc1Nc1cccc(C(F)(F)F)c1 :: -0.685
NC(=O)N1c2ccccc2CC(=O)c2ccccc21 [Oxcarbazepine] :: -1.13
CN[C@@H]1[C@@H](O)[C@@H](O[C@@H]2[C@@H](O)[C@H](O[C@H]3OC(CN)=CC[C@H]3N)[C@@H](N)C[C@H]2N)OC[C@]1(C)O [Sisomicin sulfate] :: -0.546
COc1ccccc1OCC(O)COC(N)=O (centres undefined) :: -0.777

Annotate the compound Cc1cc(=O)n(-c2ccccc2)n1C [Antipyrine] with its measured whole-cell filipin (z-score).
-0.0627

Annotate the compound CN1CCC(=C2c3ccccc3Sc3ccccc32)CC1 [Pimethixene maleate] with its measured whole-cell filipin (z-score).
-0.782

Annotate the compound "N=C(NCCCCCCNC(=N)NC(=N)Nc1ccc(Cl)cc1)NC(=N)Nc1ccc(Cl)cc1" with its measured whole-cell filipin (z-score).
-1.91

Annotate the compound "C=C(CC)C(=O)c1ccc(OCC(=O)O)c(Cl)c1Cl" with its measured whole-cell filipin (z-score).
0.416

---

Quick reference: LBPA endosome anti-LBPA integrated intensity (z-score) of the listed items.
tested on: HeLa MZ; experiment: LBPA endosome anti-LBPA integrated intensity (sum per cell), Z-score; higher = more LBPA staining; settings: compound concentration in added solution (µM; 5 µl added to 20 µl cells): 10; 18 h
Counter-ions that a name gives are not always drawn.
Output spec: single numeric token, no unit.

// solved cases for LBPA endosome anti-LBPA integrated intensity (z-score) follow
CCN(CC)CCCC(C)Nc1ccnc2cc(Cl)ccc12 (centres undefined) [Chloroquine diphosphate] :: 2.38
CC(C)(C)NC[C@H](O)COc1ccccc1C1CCCC1 [Penbutolol sulfate] :: 0.815
CN1[C@@H]2CC[C@H]1C[C@@H](OC(=O)C(O)c1ccccc1)C2 (mixture of isomers) [Homatropine hydrobromide (R,S)] :: -0.216
OC(CCN1CCCCC1)(c1ccccc1)C1CC2C=CC1C2 (centres undefined) [Biperiden hydrochloride] :: 1.45
COc1ccc2c(c1)c(CC(=O)O)c(C)n2C(=O)c1ccc(Cl)cc1 [Indomethacin] :: 0.408
COc1nc(C)nc(Cl)c1NC1=NCCN1 [Moxonidine] :: 0.511

Annotate the molecule NS(=O)(=O)c1cc2c(cc1C(F)(F)F)NC(Cc1ccccc1)NS2(=O)=O (centres undefined) [Bendroflumethiazide] with its measured LBPA endosome anti-LBPA integrated intensity (z-score).
-0.755

Annotate the molecule Cc1ccc2c(c1)c1c3n2CCNC3CCC1 (centres undefined) [Pirlindole mesylate] with its measured LBPA endosome anti-LBPA integrated intensity (z-score).
0.024

Annotate the molecule C#C[C@]1(OC(C)=O)CC[C@H]2[C@@H]3CCC4=C[C@@H](OC(C)=O)CC[C@@H]4[C@H]3CC[C@@]21C [Ethynodiol diacetate] with its measured LBPA endosome anti-LBPA integrated intensity (z-score).
0.88

Annotate the molecule Cc1ccc(C(=O)c2ccc(CC(=O)O)n2C)cc1 [Tolmetin sodium salt dihydrate] with its measured LBPA endosome anti-LBPA integrated intensity (z-score).
-0.0177

Annotate the molecule OC(c1cc(C(F)(F)F)nc2c(C(F)(F)F)cccc12)C1CCCCN1 (centres undefined) [Mefloquine hydrochloride] with its measured LBPA endosome anti-LBPA integrated intensity (z-score).
-0.429

Annotate the molecule CN(CCCCCCCCCCN(C)C(=O)Oc1cccc([N+](C)(C)C)c1)C(=O)Oc1cccc([N+](C)(C)C)c1 [Demecarium bromide] with its measured LBPA endosome anti-LBPA integrated intensity (z-score).
-0.152

Annotate the molecule NC1CCN(c2nc3c(cc2F)c(=O)c(C(=O)O)cn3-c2ccc(F)cc2F)C1 (centres undefined) [Tosufloxacin hydrochloride] with its measured LBPA endosome anti-LBPA integrated intensity (z-score).
-1.59

Annotate the molecule CN(Cc1cnc2nc(N)nc(N)c2n1)c1ccc(C(=O)N[C@@H](CCC(=O)O)C(=O)O)cc1 (racemic) [Amethopterin (R,S)] with its measured LBPA endosome anti-LBPA integrated intensity (z-score).
2.61

---

tested on: HeLa MZ; experiment: filipin (cholesterol) integrated intensity within LBPA endosomes, Z-score; higher = more cholesterol in LBPA endosomes; conditions: compound concentration in added solution (µM; 5 µl added to 20 µl cells): 10; 18 h
Where a name gives a salt, the structure may show the parent alone.
# filipin (z-score) >= -0.4 gives TRUE, anything below gives FALSE

As a guide, the following entries are already answered.
CCCCOc1ccc(C(=O)CCN2CCCCC2)cc1 [Dyclonine hydrochloride] :: TRUE
C[C@H]1O[C@H](O[C@H]2[C@H](O)[C@@H](O)[C@@H](O[C@H]3[C@H](O)[C@@H](O)C(O)O[C@@H]3CO)O[C@@H]2CO)[C@H](O)[C@@H](O)[C@@H]1N[C@H]1C=C(CO)[C@@H](O)[C@H](O)[C@H]1O (some centres not stated) :: FALSE
CCc1c(C)[nH]c2c1C(=O)C(CN1CCOCC1)CC2 (configuration not stated) [Molindone hydrochloride] :: TRUE
O=C(NCCNCC(O)COc1ccc(O)cc1)N1CCOCC1 (configuration not stated) [Xamoterol hemifumarate] :: FALSE
NC(=O)N1c2ccccc2C=Cc2ccccc21 [Carbamazepine] :: FALSE

Form field: filipin (z-score) at least -0.4? Entry: CN1[C@@H]2CC[C@H]1C[C@@H](OC(=O)C(O)c1ccccc1)C2 (mixture of isomers) [Homatropine hydrobromide (R,S)]
FALSE

Form field: filipin (z-score) at least -0.4? Entry: Cc1ccsc1/C=C/C1=NCCCN1C [Morantel tartrate]
FALSE

Form field: filipin (z-score) at least -0.4? Entry: "O=C(O)c1cn(-c2ccc(F)cc2)c2cc(N3CCNCC3)c(F)cc2c1=O"
FALSE

Form field: filipin (z-score) at least -0.4? Entry: NC(=O)C(c1ccccc1)(c1ccccc1)[C@@H]1CCN(CCc2ccc3c(c2)CCO3)C1 [Darifenacin hydrobromide]
TRUE

Form field: filipin (z-score) at least -0.4? Entry: O=C(NCC1CCCCN1)c1cc(OCC(F)(F)F)ccc1OCC(F)(F)F (configuration not stated) [Flecainide acetate]
TRUE

Form field: filipin (z-score) at least -0.4? Entry: Clc1ccc(C(c2ccccc2Cl)C(Cl)Cl)cc1 (configuration not stated)
FALSE

Form field: filipin (z-score) at least -0.4? Entry: "C[C@@](Cc1ccc(O)c(O)c1)(NN)C(=O)O"
FALSE

---

test system: A431; assay: LBPA endosome anti-LBPA integrated intensity (sum per cell), Z-score; higher = more LBPA staining; details: compound concentration in added solution (µM; 5 µl added to 20 µl cells): 10; 18 h
Counter-ions that a name gives are not always drawn.
# LBPA endosome anti-LBPA integrated intensity (z-score) >= 0.3 gives MET, anything below gives NOT MET

As a guide, the following entries are already answered.
c1ccc([C@H]2CN3CCSC3=N2)cc1 [Levamisole hydrochloride] :: NOT MET
CCCCN(CCCC)CCC(O)c1cc2c(Cl)cc(Cl)cc2c2cc(C(F)(F)F)ccc12 (configuration not stated) [Halofantrine hydrochloride] :: MET
CN1CCC(OC(c2ccccc2)c2ccccc2)CC1 [Diphenylpyraline hydrochloride] :: NOT MET
NC[C@H]1O[C@H](O[C@H]2[C@H](O)[C@@H](O[C@H]3O[C@H](CO)[C@@H](O)[C@H](N)[C@H]3O)[C@H](N)C[C@@H]2N)[C@H](N)C[C@@H]1O [Tobramycin] :: NOT MET

Form field: LBPA endosome anti-LBPA integrated intensity (z-score) at least 0.3? Entry: CCOC(=O)N1CCC(=C2c3ccc(Cl)cc3CCc3cccnc32)CC1 [Loratadine]
MET

Form field: LBPA endosome anti-LBPA integrated intensity (z-score) at least 0.3? Entry: Nc1nc(=O)c2nc(CNc3ccc(C(=O)N[C@@H](CCC(=O)O)C(=O)O)cc3)cnc2[nH]1 [Folic acid]
NOT MET

Form field: LBPA endosome anti-LBPA integrated intensity (z-score) at least 0.3? Entry: C#C[C@]1(O)CC[C@H]2[C@@H]3CCC4=CC(=O)CC[C@@H]4[C@H]3CC[C@@]21C [Norethindrone]
NOT MET
